- system: T1, Human T cell receptor on human primary T cells (human, UniProt P01848 1-140; P01850 1-176)
- T1 construct: whole, on cells
- T1 TCR alpha (looked up): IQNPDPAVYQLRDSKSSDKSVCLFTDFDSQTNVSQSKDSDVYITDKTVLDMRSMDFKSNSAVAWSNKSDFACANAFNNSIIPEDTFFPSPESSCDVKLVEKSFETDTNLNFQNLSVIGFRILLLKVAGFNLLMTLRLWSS
- T1 TCR beta (looked up): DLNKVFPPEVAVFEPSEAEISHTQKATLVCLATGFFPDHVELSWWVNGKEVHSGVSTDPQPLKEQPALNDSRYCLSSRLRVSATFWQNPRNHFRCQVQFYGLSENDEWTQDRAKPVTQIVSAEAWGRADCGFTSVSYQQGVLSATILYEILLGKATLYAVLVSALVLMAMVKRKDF
- method_description: flow cytometry, human primary T cells
property: pEC50
Expect pEC50 as a plain number equal to -log10 of the molar concentration.

[ask] Param item = T017000625 (VHH, not shown: small tags and cut ends) VHH: EVQLVESGGGVVQPGGSLRLSCVASYDVHKINFYGWYRQAPGKEREKVAHISIGDQTDYADSAKGRFTISRDESKNTVYLQMNSLRPEDTALYYCRALSKIWPYDYWGQGTLVTVSS ; retrieve measured pEC50.
[reply] 6.64

[ask] Param item = T017000686 (VHH, not shown: small tags and cut ends) VHH: EVQLVESGGGVVQPGGSLRLSCVASGSVHKINFYGWYRQAPGKEREKVAHISIGDQTDYADSAKGRFTISRDESKNTVYLQMNSLRPEDTALYYCRALSRIWPYDYWGQGTLVTVSS ; retrieve measured pEC50.
[reply] 7.26

[ask] Param item = T0170056G05 (VHH, not shown: small tags and cut ends, also called T01700056G05; parental anti-TCR ISVD) VHH: EVQLVESGGGLVQPGGSLRLSCVASGDVHKINFLGWYRQAPGKEREKVAHISIGDQTDYADSAKGRFTISRDESKNMVYLQMNSLKPEDTAVYFCRAFSRIYPYDYWGQGTLVTVSS ; retrieve measured pEC50.
[reply] 6.85

New cases:
[ask] Param item = T017000141 (VHH, not shown: small tags and cut ends) VHH: EVQLVESGGGVVQPGGSLRLSCVASGDVHKINFLGWYRQAPGKEREKVAHISIGDQTDYADSAKGRFTISRDESKNMVYLQMNSLRPEDTALYFCRAFSRIYPYDYWGQGTLVTVSS ; retrieve measured pEC50.
[reply] 7.00
